Organism: Mus musculus
MEASUREMENT DESCRIPTION: Dose needed to increase the 100% survival of treated animals (mouse), to twice the number of days
Type: ADME, organism-based
MEASUREMENT CONTEXT: in vivo
Each record here notes measured ED.

Completed entries (count: 2):
Cc1cccc(OCCCON/C(N)=N/C(N)=N/C(C)C)c1.Cl    > 128 mg/kg
CC(C)/N=C(N)/N=C(\N)NOCCCOc1ccc(F)cc1F.Cl    > 128 mg/kg

Answer with reported ED of Cc1ccc(OCCCON/C(N)=N/C(N)=N/C(C)C)cc1C.Cl
> 128 mg/kg
